- assay-target: H^+ --K^+ ATPase (Sus scrofa, UniProt P19156)
- Construct: prepared from a gland portion of the gastric fundus of the gastiric mucosa of a fresh pig
- Sequence (P19156 2-1034 limits assumed): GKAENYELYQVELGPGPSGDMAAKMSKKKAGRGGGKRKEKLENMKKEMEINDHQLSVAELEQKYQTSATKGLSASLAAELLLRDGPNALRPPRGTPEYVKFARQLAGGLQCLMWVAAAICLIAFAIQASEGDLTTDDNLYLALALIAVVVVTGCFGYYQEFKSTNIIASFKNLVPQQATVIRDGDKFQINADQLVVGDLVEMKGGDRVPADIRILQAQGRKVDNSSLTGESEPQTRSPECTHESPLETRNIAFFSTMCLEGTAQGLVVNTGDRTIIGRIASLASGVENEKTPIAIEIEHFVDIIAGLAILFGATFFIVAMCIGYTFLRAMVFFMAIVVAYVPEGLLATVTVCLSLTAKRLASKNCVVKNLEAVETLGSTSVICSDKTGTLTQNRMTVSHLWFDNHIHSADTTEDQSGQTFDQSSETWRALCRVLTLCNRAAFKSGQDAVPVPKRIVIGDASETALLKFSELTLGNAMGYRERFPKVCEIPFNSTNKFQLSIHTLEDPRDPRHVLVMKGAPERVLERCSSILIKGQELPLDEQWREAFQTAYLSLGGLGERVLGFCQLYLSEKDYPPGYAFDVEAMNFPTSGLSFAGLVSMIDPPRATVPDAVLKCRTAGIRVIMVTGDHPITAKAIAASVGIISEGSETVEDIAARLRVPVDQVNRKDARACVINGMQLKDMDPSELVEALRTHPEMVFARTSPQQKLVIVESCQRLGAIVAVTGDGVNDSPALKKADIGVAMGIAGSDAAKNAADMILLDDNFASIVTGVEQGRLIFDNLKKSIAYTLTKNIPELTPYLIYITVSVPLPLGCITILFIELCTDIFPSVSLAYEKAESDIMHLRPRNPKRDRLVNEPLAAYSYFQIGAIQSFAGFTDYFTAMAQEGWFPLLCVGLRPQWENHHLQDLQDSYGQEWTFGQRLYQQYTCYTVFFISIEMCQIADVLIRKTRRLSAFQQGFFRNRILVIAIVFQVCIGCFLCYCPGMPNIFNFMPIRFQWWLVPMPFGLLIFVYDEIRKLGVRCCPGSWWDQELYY
- Sequence (P18434 whole entry partner): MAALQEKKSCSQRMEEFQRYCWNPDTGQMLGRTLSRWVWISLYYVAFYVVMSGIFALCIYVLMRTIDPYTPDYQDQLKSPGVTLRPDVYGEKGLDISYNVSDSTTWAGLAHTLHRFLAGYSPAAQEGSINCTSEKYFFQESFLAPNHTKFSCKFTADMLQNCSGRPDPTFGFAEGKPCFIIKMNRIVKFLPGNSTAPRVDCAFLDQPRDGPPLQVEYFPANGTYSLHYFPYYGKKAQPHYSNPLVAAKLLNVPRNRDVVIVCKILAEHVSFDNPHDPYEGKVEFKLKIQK
- assay-name: H+-K+ ATPase activity inhibition
- measurement-conditions: pig gastric fundus gland H+-K+ ATPase; pH 7.40, 37° C., 30 min incubation; compound dissolved in methanol; read-out: inhibitory effect on H+-K+ ATPase activity, IC50
This listing pairs compounds with measured pIC50.
Please note pIC50 is a logarithmic value: minus log10 of concentration in mol/L. Answer with that number alone.

CCOCCOc1ccnc(C[S+]([O-])c2nc3ccccc3[nH]2)c1C (stereo not shown): 5.55
COCCOc1ccnc(C[S+]([O-])c2nc3cc(C(F)(F)F)ccc3[nH]2)c1C (stereo not shown): 5.77
CCCCOCCOc1ccnc(C[S+]([O-])c2nc3cc(C(F)(F)F)ccc3[nH]2)c1C (stereo not shown): 5.96
CCCCOCCOc1ccnc(C[S+]([O-])c2nc3cc(C)c(C)cc3[nH]2)c1C (stereo not shown): 5.66

# input Consider the compound COCCOc1ccnc(C[S+]([O-])c2nc3ccccc3[nH]2)c1C (stereo not shown) and give its recorded pIC50.
# output 5.48

# input Consider the compound CCCCOCCOc1ccnc(C[S+]([O-])c2nc3cc(OC)ccc3[nH]2)c1C (stereo not shown) and give its recorded pIC50.
# output 5.52
